details: in THF, 288.15 K
measurement kind: solubility (mole fraction)

1. Nc1ccc(N2CCOCC2=O)cc1 : 0.00245

====

settings: in n-propanol, 333.15 K
measurement kind: solubility (mole fraction)

1) Nc1ccc(N2CCOCC2=O)cc1 : 0.00443

====

conditions: in ethanol, 283.15 K
measurement kind: solubility (mole fraction)

1) Nc1ccc(N2CCOCC2=O)cc1 : 0.00162

====

settings: in methanol, 308.15 K
measurement kind: solubility (mole fraction)

1. Nc1ccc(N2CCOCC2=O)cc1 : 0.00751

====

conditions: in ethanol, 323.15 K
measurement kind: solubility (mole fraction)

1. Nc1ccc(N2CCOCC2=O)cc1 : 0.00792
